Kindly state log10 MIC99 for each of the entries shown.
- Test system: Mycobacterium tuberculosis
- experiment-notes: Antitubercular activity against Mycobacterium tuberculosis H37Rv by Lowenstein-Jensen slope method
- Type: functional
Friendly reminder: values = log10 of MIC99, unit µg/mL.

compound: Fc1ccc(-c2nn(-c3ccccc3)cc2C2=NNC(c3ccc(Cl)cc3)C2)cc1 (stereo unspecified)
observation-type: log10 MIC99
quantitative-readout: 0.80
//
compound: O=C(/C=C/c1cn(-c2ccccc2)nc1-c1ccc(F)cc1)c1ccc(Cl)cc1
observation-type: log10 MIC99
quantitative-readout: 1.00
//
compound: O=C(/C=C/c1cn(-c2ccccc2)nc1-c1ccc(F)cc1)c1ccccc1
observation-type: log10 MIC99
quantitative-readout: 1.70
//
compound: O=C(/C=C/c1cn(-c2ccccc2)nc1-c1ccc(F)cc1)c1ccc(F)cc1
observation-type: log10 MIC99
quantitative-readout: 1.40

Respectfully, I request log10 MIC99 for each entry included below.
1. NNC(=O)c1ccncc1
2. Fc1ccc(-c2nn(-c3ccccc3)cc2C2=NNC(c3ccccc3)C2)cc1 (stereo unspecified)
3. Fc1ccc(-c2nn(-c3ccccc3)cc2C2=NNC(c3ccc(F)cc3)C2)cc1 (stereo unspecified)
4. Fc1ccc(-c2nn(-c3ccccc3)cc2C2=NNC(c3ccc(Br)cc3)C2)cc1 (stereo unspecified)
5. Cc1ccc(C2CC(c3cn(-c4ccccc4)nc3-c3ccc(F)cc3)=NN2)cc1 (stereo unspecified)
6. O=C(/C=C/c1cn(-c2ccccc2)nc1-c1ccc(F)cc1)c1ccc(Br)cc1

[reply]
-0.70
1.40
1.40
1.70
1.00
1.70

// log10 MIC99 value for Cc1ccc(C(=O)/C=C/c2cn(-c3ccccc3)nc2-c2ccc(F)cc2)cc1 : 0.80
